PAMPA reference
- assay method text: PAMPA; also: unit not given here
measurement name: PAMPA

In [3]: df
Out[3]:
                                   compound  recorded_result
0             COC(=O)N[C@H]1Cc2ccccc2CNC1=O             0.59
1  CC(C)(Cc1ccc(Cl)cc1)OC(=O)C1CCCCN1 (centres unmarked)             2.61
2  C[C@@H](N)C(=O)NC(C)(Cc1ccc(F)cc1)Cc1ccc(F)cc1                1
3  CC(N)C(=O)OC(Cc1ccc(Cl)cc1)c1ccccc1 (centres unmarked)             3.45
4             CC(C)(Cc1ccc(Cl)cc1)OC(=O)CCN             3.86
5  CC(N)C(=O)OC(C)(C)Cc1ccc(F)c(F)c1 (centres unmarked)             2.37
6  CC(C)C(N)C(=O)OC(C)(C)Cc1ccc(Cl)cc1 (centres unmarked)             4.65
7     O=C(N[C@H]1Cc2ccccc2CNC1=O)OCc1ccccc1             0.68
8  CCC(C)C(N)C(=O)OC(C)(C)Cc1ccc(Cl)cc1 (centres unmarked)             5.28

Data origin: patent US20240083839A1
